In this section, each of the compounds is paired with its reported MIC.
tested on: Staphylococcus epidermidis 222; format: cell-based; details: agar dilution
Measurement label: MIC (µg/mL)

>>> assay_result("CC(C)C[C@H](C(=O)N[C@H]1C(=O)N[C@@H](CC(N)=O)C(=O)N[C@H]2C(=O)N[C@H]3C(=O)N[C@H](C(=O)N[C@H](C(=O)[O-])c4cc(O)cc(O)c4-c4cc3ccc4O)[C@H](O)c3ccc(c(Cl)c3)Oc3cc2cc(c3O)Oc2ccc(cc2Cl)[C@H]1O)[N+](C)(C)C [Compound 11, Agluco-M43A]")
2
>>> assay_result("CC(C)C[C@H](C(=O)N[C@H]1C(=O)N[C@@H](CC(N)=O)C(=O)N[C@H]2C(=O)N[C@H]3C(=O)N[C@H](C(=O)N[C@H](C(=O)[O-])c4cc(O)cc(O)c4-c4cc3ccc4O)[C@H](O)c3ccc(c(Cl)c3)Oc3cc2cc(c3O[C@@H]2O[C@H](CO)[C@@H](O)[C@H](O)[C@H]2O)Oc2ccc(cc2Cl)[C@H]1O)[N+](C)(C)C [Compound 5, M43C]")
4
>>> assay_result("CC(C)C[C@@H](N)C(=O)N[C@H]1C(=O)N[C@@H](CC(N)=O)C(=O)N[C@H]2C(=O)N[C@H]3C(=O)N[C@H](C(=O)N[C@H](C(=O)O)c4cc(O)cc(O)c4-c4cc3ccc4O)[C@H](O)c3ccc(c(Cl)c3)Oc3cc2cc(c3O)Oc2ccc(cc2Cl)[C@H]1O [Compound 9, Agluco-A51568A]")
1
>>> assay_result("CN[C@H](CC(C)C)C(=O)N[C@H]1C(=O)N[C@@H](CC(N)=O)C(=O)N[C@H]2C(=O)N[C@H]3C(=O)N[C@H](C(=O)N[C@H](C(=O)O)c4cc(O)cc(O)c4-c4cc3ccc4O)[C@H](O)c3ccc(c(Cl)c3)Oc3cc2cc(c3O[C@@H]2O[C@H](CO)[C@@H](O)[C@H](O)[C@H]2O)Oc2ccc(cc2Cl)[C@H]1O [Compound 13, Desvancosamine-Vancomycin]")
8
>>> assay_result("CC(C)C[C@@H](N)C(=O)N[C@H]1C(=O)N[C@@H](CC(N)=O)C(=O)N[C@H]2C(=O)N[C@H]3C(=O)N[C@H](C(=O)N[C@H](C(=O)O)c4cc(O)cc(O)c4-c4cc3ccc4O)[C@H](O)c3ccc(c(Cl)c3)Oc3cc2cc(c3O[C@@H]2O[C@H](CO)[C@@H](O)[C@H](O)[C@H]2O)Oc2ccc(cc2Cl)[C@H]1O [Compound 12, Desvancosamine-A51568A]")
4
>>> assay_result("CN[C@H](CC(C)C)C(=O)N[C@H]1C(=O)N[C@@H](CC(N)=O)C(=O)N[C@H]2C(=O)N[C@H]3C(=O)N[C@H](C(=O)N[C@H](C(=O)O)c4cc(O)cc(O)c4-c4cc3ccc4O)[C@H](O)c3ccc(c(Cl)c3)Oc3cc2cc(c3O)Oc2ccc(cc2Cl)[C@H]1O [Compound 10, aglucovancomycin]")
1
